Organism: Rattus norvegicus
measurement protocol: Open TG-GATES - Regimen: Single
Format: toxicity, organism-based, Sprague-Dawley
Design: regimen Single, gender Male, age 6 weeks
stated conditions: in vivo, po, 0 mg/kg, 9 h, tissue Kidney, route gavage, dose level Control
KIDNEY_TOTAL of 2 g or higher: true. Under 2 g: false.

molecule: CCc1cc(C(N)=S)ccn1 [ETHIONAMIDE]
answer label: true
//
molecule: O=C(O)c1cn(C2CC2)c2cc(N3CCNCC3)c(F)cc2c1=O
answer label: false
//
molecule: CC(=O)Oc1ccccc1C(=O)O
answer label: false
//
molecule: O=C(O)c1cc(/N=N/c2ccc(S(=O)(=O)Nc3ccccn3)cc2)ccc1O
answer label: false
//
molecule: CSc1ccc2c(c1)N(CCC1CCCCN1C)c1ccccc1S2 (stereo not given)
answer label: false
//
molecule: NC(=O)N/N=C/c1ccc([N+](=O)[O-])o1
answer label: false
//
molecule: C[C@H](CS)C(=O)N1CCC[C@H]1C(=O)O
answer label: true
//
molecule: COc1ccc(Cc2nccc3cc(OC)c(OC)cc23)cc1OC
answer label: false

Hello, the source for this data is ChEMBL document CHEMBL3885861, in case you need it.
